Test system: AA1029
assay-text: qHTS profiling for inhibitors of Plasmodium falciparum proliferation (AID 504749); note: nearly all actives have a fitted effect of over 60% in size; note: potency is the fitted concentration of half-maximal effect
protocol-conditions: P. falciparum in erythrocytes, SYBR Green DNA, 72 h; series mostly up to 28.7 µM
Protocol: NIH National Institute of Allergy and Infectious Diseases [NIAID] NIH Chemical Genomics Center [NCGC] […] Because mature erythrocytes lack DNA, only Plasmodium-derived DNA is detected. NCGC Assay Protocol Summary: The SYBR Green viability assay was adapted from a method described previously (Plouffe et al., 2008). […] The following morning, fluorescence intensity at 485(14) nm excitation and 535(25) nm emission wavelengths was measured on an EnVision (Perkin Elmer) plate reader. […]
Results filed as inconclusive are left out. Active and inactive are the calls of the source. Calls come from the whole dose curve; as a rule, active = well fitted inhibition curve with a large enough effect; inconclusive = small, poorly fitted or top-dose-only effect; inactive = flat fitted curve, though single readings scatter.
quantity-kind: Potency

>  <compound>
CCCC(=O)O[C@]1(C(=O)CCl)[C@H](C)C[C@@H]2[C@H]3CCC4=CC(=O)C=C[C@]4(C)[C@@]3(F)C(=O)C[C@@]21C

>  <measurement-target>
AA1029

>  <Potency>
2820 nM (active)

$$$$
>  <compound>
COC(=O)CCC(=O)CN

>  <measurement-target>
AA1029

>  <Potency>
inactive

$$$$
>  <compound>
O=C(COc1ccc(Cl)cc1)OCCNC12CC3CC(CC(C3)C1)C2

>  <measurement-target>
AA1029

>  <Potency>
inactive

$$$$
>  <compound>
Nc1ncnc2c1ncn2[C@@H]1O[C@H](COP(=O)(O)OP(=O)(O)OP(=O)(O)O)[C@@H](O)[C@H]1O

>  <measurement-target>
AA1029

>  <Potency>
inactive

$$$$
>  <compound>
CCOC(=O)C1=CC2(CC)CCCN3CCc4c(n1c1ccccc41)C32 (stereo not given)

>  <measurement-target>
AA1029

>  <Potency>
11200 nM (active)

$$$$

Form field Potency, entry `C[C@]12O[C@H](C[C@]1(O)CO)n1c3ccccc3c3c4c(c5c6ccccc6n2c5c31)CNC4=O` : 316 nM (active)

Notebook: `Cc1c(C)c2c(c(C)c1O)CC[C@@](C)(CCC[C@H](C)CCC[C@H](C)CCCC(C)C)O2` , Potency read as inactive

// field: Potency; key: CC(Cc1ccc(O)c(O)c1)C(C)Cc1ccc(O)c(O)c1 (stereo not given) ; value = inactive

---

assay-text: qHTS drug screen for cell cycle checkpoint inhibitors in PARPi-resistant BRCA-mutant ovarian cancer cell lines. (AID 1963452)
protocol-conditions: PEO1/OlaR viability, CellTiter-Glo luminescence, 96 h; hits give low values
Mark yes (1) for Z-AUC under -0.2, no (0) if at or over.

>  <compound>
O=C(O)c1ccc(CCCc2ccc(OCCc3ccc(F)cc3)cc2)o1

>  <assigned-category>
no (0)

$$$$
>  <compound>
CN(C)c1cccc(-c2c3c(=O)n(-c4ccccc4Cl)[nH]c3cc(=O)n2C)c1

>  <assigned-category>
yes (1)

$$$$
>  <compound>
CCCCN(CCCC)C(=O)CN1C[C@H](c2ccc3c(c2)OCO3)[C@@H](C(=O)O)[C@@H]1c1ccc(OC)cc1

>  <assigned-category>
no (0)

$$$$
>  <compound>
Cc1c(-c2ccnn2C)cc(C(=O)NCc2ccc(S(C)(=O)=O)cn2)c(=O)n1-c1cccc(C(F)(F)F)c1

>  <assigned-category>
yes (1)

$$$$
>  <compound>
O=C(c1ccc(NS(=O)(=O)c2cccc3cccnc23)cc1)N1CCN(CC2CC2)CC1

>  <assigned-category>
no (0)

$$$$
>  <compound>
CCOC(=O)[C@H]1O[C@@H]1C(=O)N[C@@H](CC(C)C)C(=O)NCCC(C)C

>  <assigned-category>
yes (1)

$$$$
>  <compound>
CN1CC[C@@H](NC(=O)Nc2ccc(C#N)cc2)C[C@@H]1c1nc2ccccc2[nH]1

>  <assigned-category>
yes (1)

$$$$
>  <compound>
O=C(Nc1cccnn1)N1CCC(=Cc2cccc(Oc3ccc(C(F)(F)F)cn3)c2)CC1

>  <assigned-category>
yes (1)

$$$$

Enquiry: Quick check: Z-AUC of `C[C@H](CCC(=O)O)[C@H]1CC[C@H]2[C@@H]3[C@H](O)C[C@@H]4C[C@H](O)CC[C@]4(C)[C@H]3CC[C@]12C` under -0.2?
Return: no (0)

Enquiry: # check: Z-AUC < -0.2 for `O=C(O)c1cnn(-c2nc3cc(OC(F)(F)F)c(Cl)cc3[nH]2)c1`
Return: no (0)

Enquiry: Hello, I'm reviewing records and need to know if Z-AUC of `C[C@H]1[C@H](C)CC[C@]2(C(=O)O)CC[C@]3(C)C(=CC[C@@H]4[C@@]5(C)C[C@@H](O)[C@H](O)[C@@](C)(CO)[C@@H]5CC[C@]43C)[C@H]12` is below -0.2. Could you check?
Return: no (0)

// provenance: PubChem BioAssay (NCATS)
